Data origin, for the record: paper PMC3488358

System: P. falciparum (W2 Clone)
Assay type: cell-based, Plasmodium falciparum
Settings: read-out: P. falciparum (W2 Clone) IC50; chloroquine-resistant W2 clone
measurement type: pIC50
pIC50 is defined as minus the log10 of a concentration measured in mol/L.

Task: // lookup pIC50 for CCCCC[C@@H]1C[C@@H]2CC[C@@H]3C[C@H](C)NC(=N1)N32 (racemic) [17l, batzelladine K]
Result: 4.86

----------
Test system: Leishmania donovani promastigotes
Test: In vitro antileishmanial activity, Alamar Blue assay
Type: cell-based
Details: read-out: L. donovani IC50; promastigotes
measurement type: pIC50
// pIC50 here means minus log10 of the molar concentration (mol/L)

Task: Tell me reported pIC50 for CCCCC[C@@H]1C[C@@H]2CC[C@@H]3C[C@H](C)NC(=N1)N32 (racemic) [17l, batzelladine K] , tested with Leishmania donovani promastigotes.
Result: 4.32
